For each of the compounds below, state its normalized growth.
assay: chemical genetic growth profiling, strain panel (AID 1159580);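 note: tested at 20 µM; growth read once vehicle control cultures reached saturation at 30 °C; 1 = growth at the plate median or of vehicle wells; lower values mean less growth of the strain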; conditions: S. cerevisiae deletion strains, growth OD, locus YJL092W, strain hpr5, hits give low values
The campaign covered roughly 5,500 compounds. About 2,000 (36%) were called active. Not shown: some 18% with an inconclusive outcome. The list shows a part of the results.
Answers are plain numbers.

Examples with answers:
CCC(=O)Nc1ccc(Cl)c(Cl)c1
0.985
Nc1cc(C(Cl)=C(Cl)Cl)c(S(N)(=O)=O)cc1S(N)(=O)=O
1.02
C/C=C/C(=O)N(CC)c1ccccc1C
1
Cc1cc(=O)oc2c(O)c(O)ccc12
0.978
CN(C)N=Nc1nc[nH]c1C(N)=O
0.984
O=c1cc(-c2ccc(O)cc2)oc2cc(O)ccc12
0.97

Now examine the next entry.
IN: For the compound CC12CC3CC(C)(C1)CC(N)(C3)C2 , what normalized growth is on record?
OUT: 0.983
